System: SNB-19 CNS
Assay notes: NCI tumour cell line growth inhibition, 48 h

Compound: N#Cc1ccc(O)c(C2=NCC(c3ccc(-c4ccccc4)cc3)O2)c1 (stereo not given)
TGI: 26.4 µM
--
Compound: CCOC(=O)C(C(=O)OCC)S(C)(=O)=O
TGI: > 100 µM
--
Compound: Cc1c2c(n3c(nc4ccccc43)c1C#N)NCC2
TGI: > 10 µM
--
Compound: CC(/C=C1\CCC(CN(C)C)C1=O)c1cccc(Br)c1 (stereo not given)
TGI: 61.2 µM
--
Compound: COC(=O)CCc1cc(OC)c2oc(-c3ccc(OC)c(OC)c3)c(CO)c2c1
TGI: > 100 µM
--
Compound: COc1cc2c(cc1OC)-c1c(c3ccc([N+](=O)[O-])cc3c(=O)n1CCCN=[N+]=[N-])C2=O
TGI: > 100 µM
--
Compound: S=C1C(CCCOCc2ccccc2)C2CCCC23CC2(CCN13)OCCS2 (stereo not given)
TGI: > 10 µM
--
Compound: CC(=O)c1ccc(Nc2nc3ccccc3c3occc23)cc1
TGI: > 100 µM
--
Compound: CCOC(=O)C(CCSC)(CCSC)C(=O)OCC
TGI: > 100 µM
--
Compound: O=c1oc2ccc(I)cc2c(=O)n1-c1ccc(I)cc1F
TGI: > 100 µM
